The reported numbers originate from patent US11142518B2.

run_description: Solubility determinations in purified water and buffers
Assay type: physicochemical
condition_set: pH 4 buffer, 18 °C, pH 4, aqueous buffer, thermodynamic from solid, pH 4 Buffer, 18-23° C., t = 24 h; read-out: Measured solubilities (mg/ml), bound
observable: solubility at 24 h

Entry COc1cc(F)cc([C@@H](CO)NC(=O)[C@@H](C)N2Cc3ccc(-c4nc(NC5CCOCC5)ncc4Cl)cc3C2=O)c1 — recorded solubility at 24 h = < 0.1 mg/mL

* * *

run_description: Solubility determinations in purified water and buffers
Assay type: physicochemical
condition_set: pH 7 buffer, 18 °C, pH 7, aqueous buffer, thermodynamic from solid, pH 7 Buffer, 18-23° C., t = 24 h; read-out: Measured solubilities (mg/ml), bound
observable: solubility at 24 h

// solubility at 24 h value for COc1cc(F)cc([C@@H](CO)NC(=O)[C@@H](C)N2Cc3ccc(-c4nc(NC5CCOCC5)ncc4Cl)cc3C2=O)c1 : < 0.1 mg/mL

* * *

run_description: Solubility determinations in non-aqueous solvents
Type: physicochemical
condition_set: propylene glycol, 18 °C, organic solvent or mixture, thermodynamic from solid; read-out: Estimated maximum solubilities (mg/ml), at 18 to 23° C.
observable: solubility at 72 h (mg/mL)
Respond with the bare value in mg/mL.

Recorded solubility at 72 h (molecule COc1cc(F)cc([C@@H](CO)NC(=O)[C@@H](C)N2Cc3ccc(-c4nc(NC5CCOCC5)ncc4Cl)cc3C2=O)c1 ): 289

* * *

run_description: Solubility determinations in purified water and buffers
Assay type: physicochemical
condition_set: pH 5 buffer, 18 °C, pH 5, aqueous buffer, thermodynamic from solid, pH 5 Buffer, 18-23° C., t = 24 h; read-out: Measured solubilities (mg/ml), bound
observable: solubility at 24 h

The measured solubility at 24 h associated with COc1cc(F)cc([C@@H](CO)NC(=O)[C@@H](C)N2Cc3ccc(-c4nc(NC5CCOCC5)ncc4Cl)cc3C2=O)c1 reads < 0.1 mg/mL

* * *

run_description: Solubility determinations in purified water and buffers
Assay type: physicochemical
condition_set: buffers at pH 1.2 to 8.0, 20.5 °C, pH 1.2, aqueous buffer, thermodynamic from solid, buffers at pH 1.2 to 8.0; read-out: Solubility in buffers (conclusion: practically insoluble)
observable: solubility

Entry under test: COc1cc(F)cc([C@@H](CO)NC(=O)[C@@H](C)N2Cc3ccc(-c4nc(NC5CCOCC5)ncc4Cl)cc3C2=O)c1 . Its solubility was < 100 µg/mL

* * *

run_description: Solubility determinations in non-aqueous solvents
Assay type: physicochemical
condition_set: glycerol, 18 °C, organic solvent or mixture, thermodynamic from solid; read-out: Estimated maximum solubilities (mg/ml), at 18 to 23° C.
observable: solubility at 72 h (mg/mL)
Your answer is read as mg/mL, so omit the unit and give the number.

The compound identified as COc1cc(F)cc([C@@H](CO)NC(=O)[C@@H](C)N2Cc3ccc(-c4nc(NC5CCOCC5)ncc4Cl)cc3C2=O)c1 registered its solubility at 72 h at 5
